target-desc: leptin receptor (ObR) naturally expressed on MCF-7, LN229 and LN18 cells (human)
experiment-notes: cell-based or functional assay
Where no end group is shown, it is not given here. [ ]: non-standard residue; d: D form. NMeR = CN[C@@H](CCCNC(=N)N)C(=O)O; aThr = C[C@H](O)[C@H](N)C(=O)O; Nva = CCC[C@H](N)C(=O)O; Ahx = NCCCCCC(=O)O; βAla = NCCC(=O)O
Each entry below carries its reported EC50, proliferation of ObR-positive cancer cells in the absence of leptin.
measure-name: EC50, proliferation of ObR-positive cancer cells in the absence of leptin

>>> recorded_value("E[Nva]VALSR[Ahx]-NH2 (N-terminus assumed; SMILES CCC[C@H](NC(=O)[C@@H](N)CCC(=O)O)C(=O)N[C@H](C(=O)N[C@@H](C)C(=O)N[C@@H](CC(C)C)C(=O)N[C@@H](CO)C(=O)N[C@@H](CCCNC(=N)N)C(=O)NCCCCCC(N)=O)C(C)C) [peptide of amino acid sequence Glu-Nva-Val-Ala-Leu-Ser-Arg-AcpNH2 [SEQ ID NO:51]]")
"> 500 nM"
>>> recorded_value("TE[Nva][Nva]ALSR[Nva]-NH2 (N-terminus assumed; SMILES CCC[C@H](NC(=O)[C@H](CCCNC(=N)N)NC(=O)[C@H](CO)NC(=O)[C@H](CC(C)C)NC(=O)[C@H](C)NC(=O)[C@H](CCC)NC(=O)[C@H](CCC)NC(=O)[C@H](CCC(=O)O)NC(=O)[C@@H](N)[C@@H](C)O)C(N)=O) [peptide of amino acid sequence Thr-Glu-Nva-Nva-Ala-Leu-Ser-Arg-NvaNH2 [SEQ ID NO:47]]")
"> 1000 nM"
>>> recorded_value("TE[Nva]VALSR[Ahx]-NH2 (N-terminus assumed; SMILES CCC[C@H](NC(=O)[C@H](CCC(=O)O)NC(=O)[C@@H](N)[C@@H](C)O)C(=O)N[C@H](C(=O)N[C@@H](C)C(=O)N[C@@H](CC(C)C)C(=O)N[C@@H](CO)C(=O)N[C@@H](CCCNC(=N)N)C(=O)NCCCCCC(N)=O)C(C)C) [peptide of amino acid sequence Thr-Glu-Nva-Val-Ala-Leu-Ser-Arg-AcpNH2 [SEQ ID NO:4]]")
"> 1000 nM"
>>> recorded_value("[aThr]E[Nva]VALSR[Ahx]-NH2 (N-terminus assumed; SMILES CCC[C@H](NC(=O)[C@H](CCC(=O)O)NC(=O)[C@@H](N)[C@H](C)O)C(=O)N[C@H](C(=O)N[C@@H](C)C(=O)N[C@@H](CC(C)C)C(=O)N[C@@H](CO)C(=O)N[C@@H](CCCNC(=N)N)C(=O)NCCCCCC(N)=O)C(C)C) [peptide of amino acid sequence alloThr-Glu-Nva-Val-Ala-Leu-Ser-Arg-AcpNH2 [SEQ ID NO:49]]")
"> 1000 nM"
>>> recorded_value("[dS]E[Nva]VALS[NMeR][βAla]-NH2 [peptide of amino acid sequence (D)-Ser-Glu-Nva-Val-Ala-Leu-Ser-N-MeArg-bAlaNH2 [SEQ ID NO:6]]")
"> 1000 nM"
